Test system: KCL-22
measurement.notes: cell viability (% survival relative to DMSO control, bortezomib = 0%); higher = less cytotoxic
cond: 10 nM; 72 h
For each of the compounds below, state its cell viability.
Give bare numbers, in %.

- CN(C)C(=O)[C@H](O)[C@H](Cc1ccccc1)NC(=O)c1cc2cc(Cl)ccc2[nH]1: 98.3

For each entry beneath this line, provide reported cell viability.
1. CCC(=O)N1CCN(c2ccc(-n3c(=O)ccc4cnc5ccc(-c6cnc7ccccc7c6)cc5c43)cc2C(F)(F)F)CC1
2. NCCCC(N)(C(=O)O)C(F)F (centres undefined)
3. CCCCC/C=C\C/C=C\C/C=C\C/C=C\CCCCN1C(=O)C=CC1=O [N-Arachidonylmaleimide]

Resp:
110
84.4
95.7

====

For each of the compounds below, state its cell viability.
Test system: HL-60
measurement.notes: cell viability (% survival relative to DMSO control); higher = less cytotoxic
cond: 1 µM; 72 h; co-treatment: GSK2194069 100 nM
Answer with the figure and its unit, nothing else.

* CC(C)c1cc2c(c(O)c1O)[C@@]1(C(=O)O)CCCC(C)(C)[C@@H]1CC2 [Carnosic acid] | 99.3%
* COc1ccc(S(=O)(=O)N2CCN(S(=O)(=O)c3ccc4c(c3)OCCO4)CC2)cc1 [BML283] | 99.4%
* O=C(O)c1cc(Cl)cc(Cl)c1O [3,5-Dichlorosalicylic Acid] | 97.5%
* CC[C@@]1(O)C(=O)OCc2c1cc1n(c2=O)Cc2cc3c(CN(C)C)c(O)ccc3nc2-1 [Topotecan] | 6.25%
* O=C(O)Cn1nnc(-c2cc(N3CCC(Oc4cc(F)ccc4Br)CC3)no2)n1 [MK-8245] | 90.2%
* CC1(C)[C@@H](O[C@H]2O[C@H](C(=O)O)[C@@H](O)[C@H](O)[C@H]2O[C@@H]2O[C@H](C(=O)O)[C@@H](O)[C@H](O)[C@H]2O)CC[C@]2(C)[C@H]3C(=O)C=C4[C@@H]5C[C@@](C)(C(=O)O)CC[C@]5(C)CC[C@@]4(C)[C@]3(C)CC[C@@H]12 [Glycyrrhizin] | 110%
* Oc1ccc(Nc2nc(-c3ccc(Cl)cc3)cs2)cc1 [SKI II] | 101%
* COc1ccc(C(=O)Nc2c(Cl)cncc2Cl)cc1OC1CCCC1 [Piclamilast] | 97.1%
* Cc1ccccc1C(C(=O)NC1CCCCC1)N(C(=O)Cn1ccnc1C)c1cccc(F)c1 (stereo not given) [AGI-5198] | 101%
* CCOP(=O)(OCC)C(=Cc1cc(C(C)(C)C)c(O)c(C(C)(C)C)c1)P(=O)(OCC)OCC | 102%

For each entry beneath this line, provide reported cell viability.
1. C=C(C)[C@H]1Cc2c(ccc3c2O[C@@H]2COc4cc(OC)c(OC)cc4[C@@H]2C3=O)O1 [Rotenone]
2. CC(C)c1onc(-c2c(Cl)cccc2Cl)c1COc1ccc(/C=C/c2cccc(C(=O)O)c2)c(Cl)c1 [GW4064]
3. COC(=O)[C@]12CCC(C)(C)C[C@H]1[C@H]1C(=O)C=C3[C@@]4(C)C=C(C#N)C(=O)C(C)(C)[C@@H]4CC[C@@]3(C)[C@]1(C)CC2 [Bardoxolone methyl]
4. CCCCC/C=C\C/C=C\C/C=C\C/C=C\CCCCN1C(=O)C=CC1=O [N-Arachidonylmaleimide]
5. O=C(O)C(=O)CBr [3-bromopyruvic acid]

Resp:
1: 35.8%; 2: 90.9%; 3: 88.8%; 4: 100%; 5: 103%
